Attribute: log10 of IC50
Biological target: Histone deacetylase
Experiment: Inhibition of HDAC in human HeLa cell nuclear extract using Boc-Lys (Ac)-AMC as substrate after 60 mins by fluorometric analysis
Assay type: cell-based
readout_name: log10 of IC50 (log10 of the value in nM)

[
  {
    "entry_smiles": "COc1ccc(-c2nc(NC(=O)NCCC(=O)NO)cc3c2[nH]c2ccccc23)cc1",
    "log10 of IC50": 2.63
  },
  {
    "entry_smiles": "Cc1nc(C(=O)NCCCCCC(=O)NO)cc2c1[nH]c1ccccc12",
    "log10 of IC50": 3.16
  },
  {
    "entry_smiles": "O=C(CCCCCNC(=O)c1cc2c(cn1)[nH]c1ccccc12)NO",
    "log10 of IC50": 3.26
  },
  {
    "entry_smiles": "COc1ccc(-c2nc(NC(=O)NCCCC(=O)NO)cc3c4ccccc4n(C)c23)cc1",
    "log10 of IC50": 2.71
  },
  {
    "entry_smiles": "Cc1nc(C(=O)NCCC(=O)NO)cc2c1[nH]c1ccccc12",
    "log10 of IC50": 3.39
  },
  {
    "entry_smiles": "COc1ccc(-c2nc(C(=O)NCCCCC(=O)NO)cc3c2[nH]c2ccccc23)cc1",
    "log10 of IC50": 2.91
  },
  {
    "entry_smiles": "O=C(CCNC(=O)c1cc2c(cn1)[nH]c1ccccc12)NO",
    "log10 of IC50": 3.51
  },
  {
    "entry_smiles": "COc1ccc(-c2nc(NC(=O)NCCCC(=O)NO)cc3c2[nH]c2ccccc23)cc1",
    "log10 of IC50": 2.43
  },
  {
    "entry_smiles": "COc1ccc(-c2nc(C(=O)NCCC(=O)NO)cc3c2[nH]c2ccccc23)cc1",
    "log10 of IC50": 3.12
  },
  {
    "entry_smiles": "COc1ccc(-c2nc(C(=O)NCCCC(=O)NO)cc3c2[nH]c2ccccc23)cc1",
    "log10 of IC50": 2.83
  }
]

* * *

Tested on: SW480
Assay: Antiproliferative activity against human SW480 cells assessed as cell viability after 48 hrs by MTT assay
Type: functional, cell-based
Details: SW480, 48 h
pIC50: −log10 of the molar value.
Attribute: pIC50

[
  {
    "entry_smiles": "COc1ccc(-c2nc(NC(=O)NCCCCCC(=O)NO)cc3c4ccccc4n(C)c23)cc1",
    "qualifier_sign": "<",
    "pIC50": 4.90
  },
  {
    "entry_smiles": "COc1ccc(-c2nc(NC(=O)NCCCCCC(=O)NO)cc3c2[nH]c2ccccc23)cc1",
    "qualifier_sign": "=",
    "pIC50": 5.29
  },
  {
    "entry_smiles": "COc1ccc(-c2nc(NC(=O)NCCC(=O)NO)cc3c2[nH]c2ccccc23)cc1",
    "qualifier_sign": "=",
    "pIC50": 5.51
  },
  {
    "entry_smiles": "COc1ccc(-c2nc(NC(=O)NCCCCC(=O)NO)cc3c4ccccc4n(C)c23)cc1",
    "qualifier_sign": "=",
    "pIC50": 5.24
  },
  {
    "entry_smiles": "COc1ccc(-c2nc(NC(=O)NCCC(=O)NO)cc3c4ccccc4n(C)c23)cc1",
    "qualifier_sign": "=",
    "pIC50": 5.36
  },
  {
    "entry_smiles": "COc1ccc(-c2nc(NC(=O)NCC(=O)NO)cc3c2[nH]c2ccccc23)cc1",
    "qualifier_sign": "=",
    "pIC50": 5.00
  },
  {
    "entry_smiles": "COc1ccc(-c2nc(C(=O)NCC(=O)NO)cc3c2[nH]c2ccccc23)cc1",
    "qualifier_sign": "=",
    "pIC50": 4.98
  },
  {
    "entry_smiles": "COc1ccc(-c2nc(C(=O)NCCCC(=O)NO)cc3c2[nH]c2ccccc23)cc1",
    "qualifier_sign": "=",
    "pIC50": 5.33
  }
]
